Tested on: HBV in 2.2.15 cells
TEST_DESCRIPTION: 2.2.15 cells: viral product in cell lysates quantified via quantitative real time PCR
Type: cell-based, hepatitis B virus (HBV)
PARTICULARS: Hepatitis B virus, 120 h, day 5 post treatment, 50% reduction of viral product vs no drug controls, readout (qPCR, HBsAg or HBeAg) not specified for the column
Provide the reported EC50 of each item.

CC(C)(C)[C@@H]1Cn2nc(C3CC3)c(-c3ccccc3)c2-c2cc(=O)c(-c3ncn[nH]3)cn21 [Example 195]: < 100 nM
CC(C)(C)[C@@H]1Cn2nc(-c3ccccc3CO)cc2-c2cc(=O)c(C(=O)O)cn21 [Example 84]: 200 to 1000 nM
CC(C)(C)[C@@H]1Cn2nc(-c3ccc(OC(F)(F)F)cc3)cc2-c2cc(=O)c(C(=O)O)cn21 [Example 25]: 200 to 1000 nM

The following compounds each have a reported value; give each one's EC50.
1. CNc1ncc(-c2cc3n(n2)C[C@@H](C(C)(C)C)n2cc(C(=O)O)c(=O)cc2-3)cn1 [Example 14]
2. COc1ccc(O)c(-c2cc3n(n2)C[C@@H](C(C)(C)C)n2cc(C(=O)O)c(=O)cc2-3)c1 [Example 56]
3. CC(C)[C@@H]1Cn2nc(C3CC3)c(-c3cccs3)c2-c2cc(=O)c(C(=O)O)cn21 [Example 131]
4. CC(C)(C)[C@@H]1Cn2nc(-c3cc(F)ccc3OCC(F)(F)F)c(Cl)c2-c2cc(=O)c(C(=O)O)cn21 [Example 89]
5. CC(C)(C)[C@@H]1Cn2nc(-c3ccccc3OC3CCCC3)cc2-c2cc(=O)c(C(=O)O)cn21 [Example 76]
6. CC(C)(C)[C@@H]1Cn2nc(C3CC3)c(-c3cccc(F)c3)c2-c2cc(=O)c(C(=O)O)cn21 [Example 147]
7. CC(C)[C@@H]1Cn2nc(-c3cccc(F)c3)c(-c3cccc(F)c3)c2-c2c(F)c(=O)c(C(=O)O)cn21 [Example 188]

1. 200 to 1000 nM
2. < 100 nM
3. < 100 nM
4. < 100 nM
5. < 100 nM
6. < 100 nM
7. < 100 nM

The following compounds each have a reported value; give each one's EC50.
1. CC(C)(C)[C@@H]1Cn2nc(-c3cc(F)c(F)cc3N)cc2-c2cc(=O)c(C(=O)O)cn21 [Example 64]
2. CCOc1c(F)cccc1-c1cc2n(n1)C[C@@H](C(C)(C)C)n1cc(C(=O)O)c(=O)cc1-2 [Example 71]
3. CC(C)(C)[C@@H]1Cn2ncc(-c3ccccc3)c2-c2cc(=O)c(C(=O)O)cn21 [Example 107]
4. CC(C)(C)[C@@H]1Cn2nc(-c3cccc4c3sc3ccccc34)cc2-c2cc(=O)c(C(=O)O)cn21 [Example 70]

1. < 100 nM
2. < 100 nM
3. < 100 nM
4. 200 to 1000 nM
